Biological target: human CXCR4 receptor (Homo sapiens, UniProt P61073)
Construct: expressed in transfected cells
Sequence (P61073 whole entry): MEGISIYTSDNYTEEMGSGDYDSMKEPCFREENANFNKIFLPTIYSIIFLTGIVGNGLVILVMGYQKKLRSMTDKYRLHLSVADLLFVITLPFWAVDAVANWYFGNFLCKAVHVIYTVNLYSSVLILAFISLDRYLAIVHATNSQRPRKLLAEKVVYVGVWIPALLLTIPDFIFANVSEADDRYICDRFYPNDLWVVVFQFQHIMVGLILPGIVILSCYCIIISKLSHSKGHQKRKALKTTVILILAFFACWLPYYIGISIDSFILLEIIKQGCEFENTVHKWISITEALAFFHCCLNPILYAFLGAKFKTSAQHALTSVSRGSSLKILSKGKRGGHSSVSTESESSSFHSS
Experiment: Measurement of intracellular Ca+2 responses (FLIPR), antagonism of the SDF-1α response
Assay type: cell-based
Details: HEK-Gqi5 cells stably expressing human CXCR4; Fluo-4 FLIPR; antagonism of SDF-1α 1.9 nM (EC65); values given in μM
property-measured: IC50 (µM)

Would you please look over these solved cases?
> print(dat)
                            molecule.smiles                       experimental.system  endpoint.result
1  COc1cccc(N(C)C)c1CN1CCC(Nc2nc(N(CCO)C(C)=O)nc3ccccc23)CC1  human CXCR4 receptor (Homo sapiens, UniProt P61073)              1.5
2  COc1cccc(N(C)C)c1CN1CCC(Nc2nc(NCCNC(=O)NC(C)C)nc3ccccc23)CC1  human CXCR4 receptor (Homo sapiens, UniProt P61073)              2.9
3  COc1cccc(N(C)C)c1CN1CCC(Nc2nc(N3CC3)nc3ccccc23)CC1  human CXCR4 receptor (Homo sapiens, UniProt P61073)              2.1
4  CCN(CC)CCCNc1nc(NC2CCN(Cc3ccccc3N3CCCC3)CC2)c2cc(OC)c(OC)cc2n1  human CXCR4 receptor (Homo sapiens, UniProt P61073)              1.1

1. COc1cccc(N(C)C)c1CN1CCC(Nc2nc(N3CC(CN(C)C(=O)OC(C)(C)C)C3)nc3ccccc23)CC1
2. CCN(CC)CCCNc1nc(NC2CCN(Cc3c(OC(C)C)cccc3N(C)C)CC2)c2cc(OC)c(OC)cc2n1
3. COc1cccc(N(C)C)c1CN1CCC(Nc2nc(N3CCCN(C)CC3)nc3ccccc23)CC1
# input List from greatest to least IC50. Order the labels as requested and list them.
# output 1, 3, 2

====

Target: human CXCR4 receptor (Homo sapiens)
Construct: expressed in transfected cells
Assay: Measurement of intracellular Ca+2 responses (FLIPR), antagonism of the SDF-1α response
Assay type: cell-based
Conditions: percent antagonism of SDF-1α 1.9 nM (EC65) response; HEK-Gqi5 human CXCR4 cells; value in brackets
property-measured: CXCR4 (% Inh) (%)

> print(dat)
                            molecule.smiles                  experimental.system  unit.of.measure  endpoint.result
1  COc1cccc(N(C)C)c1CN1CCC(Nc2nc(N3CCCN(C)CC3)nc3ccccc23)CC1  human CXCR4 receptor (Homo sapiens)                %              100
2  CN(C)CCCNc1nc(NC2CCN(Cc3ccccc3-n3cccc3)CC2)c2ccccc2n1  human CXCR4 receptor (Homo sapiens)                %               75
3  COc1cc2nc(NC[C@H](O)CO)nc(NC3CCN(Cc4c(OCCN(C)C)cccc4N(C)C)CC3)c2cc1OC  human CXCR4 receptor (Homo sapiens)                %               98
4  COc1cccc(N(C)C)c1CN1CCC(Nc2nc(NCC3CN(C(=O)OC(C)(C)C)C3)nc3ccccc23)CC1  human CXCR4 receptor (Homo sapiens)                %               89
5  COc1cccc(N(C)C)c1CN1CCC(Nc2nc(NCCCN(C)C)nc3ccccc23)CC1  human CXCR4 receptor (Homo sapiens)                %               95
6  COc1cc2nc(NCc3ncc[nH]3)nc(NC3CCN(Cc4c(OCCN(C)C)cccc4N(C)C)CC3)c2cc1OC  human CXCR4 receptor (Homo sapiens)                %              100
7  COc1cc2nc(NCCCN(C)C)nc(NC3CCN(Cc4c(OC)cccc4N(C)C)CC3)c2cc1OC  human CXCR4 receptor (Homo sapiens)                %              100
